# System: pigweed
# Assay Summary: Test B pre/postemergence pigweed
# Format: in vivo, Amaranthus retroflexus
# Condition: Rate 125 g/ha; Preemergence; scale of 0 to 10 where 0 is no effect and 10 is complete control
# Description: […] At the same time, these crop and weed species were also treated with postemergence applications of test chemicals formulated in the same manner. […] Treated plants and controls were maintained in a greenhouse for twelve to sixteen days, after which all species were compared to controls and visually evaluated. […]
Note to self: use MET only for Redroot pigweed plant response rating readings below 4; a reading exactly at 4 still gets NOT MET.

* Cc1nc(C)c(Cn2c(=O)on(C(=O)N(c3ccc(F)cc3F)C(C)C)c2=O)s1 | NOT MET
* CC(C)N(C(=O)n1oc(=O)n(Cc2ccccn2)c1=O)c1ccc(F)cc1 | MET
* Cc1ccccc1-n1c(=O)on(C(=O)N(c2ccc(Oc3ccccc3)cc2)C(C)C)c1=O | MET

Could you now look at the following molecule, please?
Does CC(C)N(C(=O)n1oc(=O)n(C2CCCC2)c1=O)c1ccc(F)cc1 have Redroot pigweed plant response rating strictly under 4?
NOT MET

###

Kindly supply the reported Plant response rating, Velvetleaf values for the records listed here.
# System: velvetleaf
# Assay Summary: Test B pre/postemergence velvetleaf
# Assay type: in vivo, Abutilon theophrasti
# Condition: Preemergence, Rate 500 g/ha; scale of 0 to 10 where 0 is no effect and 10 is complete control

Consider the worked cases shown below.
* CC(C)N(C(=O)n1oc(=O)n(CCC2OCCO2)c1=O)c1ccc(F)cc1 | 10
* CC(C)N(C(=O)n1oc(=O)n(CCC(=O)N(C)C)c1=O)c1ccc(F)cc1 | 10
* C#CC(C)n1c(=O)on(C(=O)N(c2ccccc2)C(C)C)c1=O (centres unmarked) | 9

// for each compound below, give its Plant response rating, Velvetleaf
1. CCCCCCCCCCCCCCCCCCCn1c(=O)on(C(=O)N(c2ccc(F)cc2)C(C)C)c1=O
2. CC(C)N(C(=O)n1oc(=O)n(Cc2nnc(Cl)s2)c1=O)c1ccccc1
3. COc1cc(C)cc(C)c1-n1c(=O)on(C(=O)N(c2ccc(F)cc2)C(C)C)c1=O
4. CC(C)N(C(=O)n1oc(=O)n(C(C)CBr)c1=O)c1ccc(F)cc1F (centres unmarked)
5. CCn1ncc(Cn2c(=O)on(C(=O)N(c3ccc(F)cc3F)C(C)C)c2=O)c1Cl
6. CC(C)N(C(=O)n1oc(=O)n(CCF)c1=O)c1ccccc1
7. Cc1nc(C)c(-n2c(=O)on(C(=O)N(c3ccc(F)cc3)C(C)C)c2=O)s1

1. 0
2. 0
3. 3
4. 7
5. 0
6. 0
7. 0

So what's the measured Plant response rating, Velvetleaf for this one? CCN(C(=O)n1oc(=O)n(C2CC2)c1=O)C1CCCCC1
0

###

# Tested on: blackgrass
# Assay Summary: Test B pre/postemergence blackgrass
# Assay type: in vivo, Alopecurus myosuroides
# Condition: Preemergence, Rate 250 g/ha
Kindly supply the reported Blackgrass plant response rating (0 to 10 scale) values for the records listed here.
Answers are plain numbers.

Consider the worked cases shown below.
- CCC(=O)Cn1c(=O)on(C(=O)N(c2ccc(F)cc2F)C(C)C)c1=O [Compound 524]: 4
- CC(C)N(C(=O)n1oc(=O)n(C(C)CBr)c1=O)c1ccc(F)cc1F (stereo not shown) [Compound 594]: 9
- CC(C)N(C(=O)n1oc(=O)n(C[Si](C)(C)C)c1=O)c1ccc(Cl)cc1 [Compound 548]: 3

So what's the measured Blackgrass plant response rating (0 to 10 scale) for this one? CC(C)N(C(=O)n1oc(=O)n(CC2CCC2)c1=O)c1ccc(Cl)cc1 [Compound 550]
7

###

# Tested on: corn
# Assay Summary: Test B pre/postemergence corn
# Format: in vivo, Zea mays
# Condition: Preemergence, Rate 500 g/ha; scale 0 (no effect) to 10 (complete control)
Kindly supply the reported Corn plant response rating values for the records listed here.
Give bare numbers.

Consider the worked cases shown below.
• COc1cccc(C)c1-n1c(=O)on(C(=O)N(c2ccc(F)cc2)C(C)C)c1=O = 0
• CC(C)N(C(=O)n1oc(=O)n(-c2ccccc2OC(F)(F)F)c1=O)c1ccc(F)cc1 = 4
• Cc1ccccc1-n1c(=O)on(C(=O)N(c2ccc(F)cc2)C2CC2)c1=O = 0
• CCN(Cc1ccccc1)C(=O)n1oc(=O)n(-c2ccccc2C)c1=O = 0

API: the following record is the query input.
Lab request: please report Corn plant response rating under test system corn for Cc1ccccc1Cn1c(=O)on(C(=O)N(C)c2ccccc2)c1=O
0

###

# Test system: velvetleaf
# Assay Summary: Test B pre/postemergence velvetleaf
# Assay type: in vivo, Abutilon theophrasti
# Condition: Preemergence, Rate 62 g/ha; scale of 0 to 10 where 0 is no effect and 10 is complete control
Kindly supply the reported Plant response rating, Velvetleaf values for the records listed here.

- CC(=O)OCCCCn1c(=O)on(C(=O)N(c2ccc(F)cc2F)C(C)C)c1=O: 0
- CC(C)N(C(=O)n1oc(=O)n(COC(=O)C(C)(C)C)c1=O)c1ccc(F)cc1: 0
- CC[Si](C)(C)Cn1c(=O)on(C(=O)N(c2ccc(Cl)cc2)C(C)C)c1=O: 0
- CC(C)N(C(=O)n1oc(=O)n(CCC#N)c1=O)c1ccc(Cl)cc1: 0

API: the following record is the query input.
Lab request: please report Plant response rating, Velvetleaf under test system velvetleaf for CCc1nc(C)c(C(C)n2c(=O)on(C(=O)N(c3ccc(F)cc3)C(C)C)c2=O)s1 (centres unmarked)
0

###

# System: morningglory
# Assay Summary: Test B pre/postemergence morningglory
# Type: in vivo, Ipomoea hederacea
# Condition: Preemergence, Rate 500 g/ha; scale of 0 to 10 where 0 is no effect and 10 is complete control
Parameter Measured: Morningglory plant response rating
Give bare numbers.

Consider the worked cases shown below.
• CC(C)N(C(=O)n1oc(=O)n(Cc2nnsc2Cl)c1=O)c1ccc(F)cc1F = 0
• CC(C)N(C(=O)n1oc(=O)n(N2CCOCC2)c1=O)c1ccc(F)cc1 = 2
• CCC(CC)n1c(=O)on(C(=O)N(c2ccc(F)cc2)C(C)C)c1=O = 5
• CC(C)N(C(=O)n1oc(=O)n(C2(C)CC2)c1=O)c1ccc(F)cc1F = 6
• Cc1cccc(C(C)(C)C)c1-n1c(=O)on(C(=O)N(c2ccccc2)C(C)C)c1=O = 3
• CC1CC1n1c(=O)on(C(=O)N(c2ccccc2)C(C)C)c1=O (stereo not drawn) = 3
• CC(C)N(C(=O)n1oc(=O)n(CC2CC2)c1=O)c1ccc(F)cc1F = 3
• CC(C)N(C(=O)n1oc(=O)n(Cc2ccccc2-c2ccccc2)c1=O)c1ccc(F)cc1 = 0

API: the following record is the query input.
So what's the measured Morningglory plant response rating for this one? C=CCCCn1c(=O)on(C(=O)N(c2ccccc2)C(C)C)c1=O
2

###

Kindly supply the reported Wheat plant response rating values for the records listed here.
# System: wheat
# Assay Summary: Test B pre/postemergence wheat
# Type: in vivo, Triticum aestivum
# Condition: Rate 125 g/ha, Postemergence; scale 0 to 10, 0 is no effect, 10 is complete control
One number for each entry.

// for each molecule below, give its Wheat plant response rating
1. COC(OC)C(C)n1c(=O)on(C(=O)N(c2ccc(F)cc2)C(C)C)c1=O (stereo not shown)
2. CC(C)N(C(=O)n1oc(=O)n(COC(=O)C(C)(C)C)c1=O)c1ccc(F)cc1
3. CC(C)N(C(=O)n1oc(=O)n(CO)c1=O)c1ccc(Cl)cc1
4. CCc1nc(C)c(C(C)n2c(=O)on(C(=O)N(c3ccc(F)cc3)C(C)C)c2=O)s1 (stereo not shown)

0
0
0
0

###

# Tested on: surinam grass
# Assay Summary: Test B pre/postemergence surinam grass
# Assay type: in vivo, Brachiaria decumbens
# Condition: Rate 125 g/ha; Preemergence; scale of 0 to 10 where 0 is no effect and 10 is complete control
Kindly supply the reported B. signalgrass plant response rating values for the records listed here.
One number for each entry.

• C=CCCCn1c(=O)on(C(=O)N(c2ccc(F)cc2)C(C)C)c1=O [Compound 291] = 3
• CC(C)N(C(=O)n1oc(=O)n(CCC2OCCO2)c1=O)c1ccc(F)cc1 [Compound 219] = 6
• Cc1ccccc1-n1c(=O)on(C(=O)N(c2ccc(Oc3ccccc3)cc2)C(C)C)c1=O [Compound 268] = 0
• [2H]C([2H])([2H])n1c(=O)on(C(=O)N(c2ccc(F)cc2)C(C)C)c1=O [Compound 245] = 7
• CC(C)N(C(=O)n1oc(=O)n(CCCCF)c1=O)c1ccc(F)cc1 [Compound 289] = 7

API: the following record is the query input.
So what's the measured B. signalgrass plant response rating for this one? COc1cc(C)cc(C)c1-n1c(=O)on(C(=O)N(c2ccc(F)cc2)C(C)C)c1=O [Compound 222]
0

###

# Tested on: surinam grass
# Assay Summary: Test B pre/postemergence surinam grass
# Type: in vivo, Brachiaria decumbens
# Condition: Postemergence, Rate 250 g/ha; scale 0 to 10, 0 no effect, 10 complete control
Parameter Measured: B. signalgrass plant response rating

Consider the worked cases shown below.
• CCN(Cc1ccccc1)C(=O)n1oc(=O)n(-c2ccccc2C)c1=O [Compound 71] = 0
• CC(C)N(C(=O)n1oc(=O)n(Cc2ccccc2)c1=O)c1ccc(Cl)cc1 [Compound 106] = 0
• COc1ccc(-n2c(=O)on(C(=O)N(c3ccc(F)cc3)C(C)C)c2=O)c(OC)c1 [Compound 33] = 1
• CC(C)N(C(=O)n1oc(=O)n(CCCF)c1=O)c1ccc(F)cc1F [Compound 500] = 7
• CC(C)N(C(=O)n1oc(=O)n(CC2=NCCCO2)c1=O)c1ccccc1 [Compound 494] = 0
• CN(C(=O)n1oc(=O)n(Cc2cccs2)c1=O)c1ccccc1 [Compound 83] = 0

// for each compound below, give its B. signalgrass plant response rating
1. CC(C)N(C(=O)n1oc(=O)n(CO)c1=O)c1ccc(Cl)cc1 [Compound 457]
2. COc1ccc(-n2c(=O)on(C(=O)N(c3ccc(F)cc3)C(C)C)c2=O)cc1 [Compound 5]
3. Cc1ccccc1-n1c(=O)on(C(=O)N(c2ccc(F)cc2)C2CC2)c1=O [Compound 37]
4. CC(C)N(C(=O)n1oc(=O)n(CC2CC2)c1=O)c1ccc(F)cc1F [Compound 509]
5. CC(C)N(C(=O)n1oc(=O)n(COC(=O)C(C)(C)C)c1=O)c1ccc(F)cc1 [Compound 462]

1. 0
2. 0
3. 0
4. 2
5. 0
